Biological target: T1, cynomolgus PVRIG on cells (cynomolgus, UniProt A0A2K5WVV8 41-322)
T1 construct: whole, on cells; also called cPVRIG; expi cPVRIG cells
T1 sequence: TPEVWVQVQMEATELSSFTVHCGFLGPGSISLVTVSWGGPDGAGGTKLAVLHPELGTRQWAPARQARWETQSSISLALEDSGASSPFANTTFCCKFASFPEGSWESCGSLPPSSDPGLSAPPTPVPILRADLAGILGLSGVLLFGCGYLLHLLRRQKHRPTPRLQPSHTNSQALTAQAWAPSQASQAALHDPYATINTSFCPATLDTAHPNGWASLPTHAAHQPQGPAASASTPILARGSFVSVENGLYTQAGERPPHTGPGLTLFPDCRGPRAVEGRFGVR
Test: FACS, expi cPVRIG over expi parental cells, 3.3ug/ml
# gMFIr Expi cyno OE/par annotations

BINDER	gMFIr Expi cyno OE/par
CHA.7.512 (antibody, V domains shown) VH: QIQLVQSGPELKKPRETVKISCKASGYTFTDYSMHWVKQAPGKGLKWMGWINTETGEPTYADDFKGRFAFSLEASASSAYLQINILKDEDTATYFCARSRGGYYEDYYALDYWGQGTSVTVSS VL: DIQMTQSPASLSASVGESVTITCRASGNIHYYLAWYQQKQGKSPQLLVYNAKNLADGVPSRFSGSGSGTQFSLKINSLQPEDFGSYYCQHFWISPPTFGGGTKLEIK	8.96
CHA.7.514 (antibody, V domains shown) VH: EVQLRQSGADLVKPGASVKLSCTASGFNIKDTYIDWVKQRPEQGLDWIGRIDPANGNTKYDPKFQGKATIITDTSSNTAYLQLSNLTSEDTAVYYCARYGSYPYFDYWGRGTTLAVSS VL: SIVMTQTPKFLLISAGDRVTITCKASQSVRNDVAWYQQKPGQSPKLLMYYASNRYTGVPDRFTGSGYGTDFTFTISTVQAEDLAVYFCQQDYSSPPTFGGGTKLEIK	65.2
CHA.7.503 (antibody, V domains shown) VH: QVQLQQSGAELAKPGASVKMSCKASGYTFTSNWMHWVKQRPGQGLEWIGYINPSNGYTECNQKFRDKATLSADKSSSTAYMQLNSLTSADSAVYYCALMISAWLPYWGQGTLVTVSA VL: DIVLTQSPASLAISLGQRATISCRASQSVSASSYSYVHWYQQKPGQPPKLLIKYASSLESGVPARFSGSGSGTDFTLNIHPVEEEDTATYYCLHTWEIPYTFGGGTKLEIK	106
